Test system: Adenocarcinoma
Assay: MTT assay, lung cancer tumor cells
Type: cell-based, human
Parameters: concentration or dose not given beside the values
Settings: 48 h, mean ± SD
measurement-type: tumor growth inhibition rate, MTT Assay (%)
Numbers only here, please. The scale is %.

input: Reported tumor growth inhibition rate, MTT Assay, substance Pro-(D-Pyr)-(D-Cys)-Bip-Arg-Gly-Glu-Gly-Gly-Gly-Gly-Arg-Gly-Asp-Gly-Gly-Gly-Gly-Ile-Val-Arg-Arg-Ala-Asp-Arg-Ala-Ala-Val-Pro [Polypeptide VI] : ____
output: 78.80

input: Now the substance Pro-(D-Pyr)-(D-Cys)-Bip-Arg-Gly-Glu-Gly-Gly-Gly-Gly-Ile-Val-Arg-Arg-Ala-Asp-Arg-Ala-Ala-Val-Pro-Gly-Gly-Gly-Gly-Arg-Gly-Asp [Polypeptide I]
output: 65.67

input: Now the substance Ile-Val-Arg-Arg-Ala-Asp-Arg-Ala-Ala-Val-Pro-Gly-Gly-Gly-Gly-Arg-Gly-Asp-Gly-Gly-Gly-Gly-Pro-(D-Pyr)-(D-Cys)-Bip-Arg-Gly-Glu [Polypeptide V]
output: 75.52

input: Now the substance Arg-Gly-Asp-Gly-Gly-Gly-Gly-Pro-(D-Pyr)-(D-Cys)-Bip-Arg-Gly-Glu-Gly-Gly-Gly-Gly-Ile-Val-Arg-Arg-Ala-Asp-Arg-Ala-Ala-Val-Pro [Polypeptide III]
output: 93.25

input: Now the substance Arg-Gly-Asp-Gly-Gly-Gly-Gly-Ile-Val-Arg-Arg-Ala-Asp-Arg-Ala-Ala-Val-Pro-Gly-Gly-Gly-Gly-Pro-(D-Pyr)-(D-Cys)-Bip-Arg-Gly-Glu [Polypeptide IV]
output: 88.65

input: Now the substance Ile-Val-Arg-Arg-Ala-Asp-Arg-Ala-Ala-Val-Pro-Gly-Gly-Gly-Gly-Pro-(D-Pyr)-(D-Cys)-Bip-Arg-Gly-Glu-Gly-Gly-Gly-Gly-Arg-Gly-Asp [Polypeptide II]
output: 86.03

###

Test system: Large cell lung cancer
Assay: MTT assay, lung cancer tumor cells
Format: cell-based, human
Design: concentration or dose not given beside the values
Settings: 48 h, mean ± SD
Items are presented alongside their recorded tumor growth inhibition rate, MTT Assay.
Numbers only here, please. The scale is %.

Answered examples (3):
substance | tumor growth inhibition rate, MTT Assay, %
Arg-Gly-Asp-Gly-Gly-Gly-Gly-Pro-(D-Pyr)-(D-Cys)-Bip-Arg-Gly-Glu-Gly-Gly-Gly-Gly-Ile-Val-Arg-Arg-Ala-Asp-Arg-Ala-Ala-Val-Pro [Polypeptide III] | 93.53
Pro-(D-Pyr)-(D-Cys)-Bip-Arg-Gly-Glu-Gly-Gly-Gly-Gly-Arg-Gly-Asp-Gly-Gly-Gly-Gly-Ile-Val-Arg-Arg-Ala-Asp-Arg-Ala-Ala-Val-Pro [Polypeptide VI] | 79.04
Ile-Val-Arg-Arg-Ala-Asp-Arg-Ala-Ala-Val-Pro-Gly-Gly-Gly-Gly-Pro-(D-Pyr)-(D-Cys)-Bip-Arg-Gly-Glu-Gly-Gly-Gly-Gly-Arg-Gly-Asp [Polypeptide II] | 86.28

input: Reported tumor growth inhibition rate, MTT Assay, substance Arg-Gly-Asp-Gly-Gly-Gly-Gly-Ile-Val-Arg-Arg-Ala-Asp-Arg-Ala-Ala-Val-Pro-Gly-Gly-Gly-Gly-Pro-(D-Pyr)-(D-Cys)-Bip-Arg-Gly-Glu [Polypeptide IV] : ____
output: 88.92

input: Now the substance Ile-Val-Arg-Arg-Ala-Asp-Arg-Ala-Ala-Val-Pro-Gly-Gly-Gly-Gly-Arg-Gly-Asp-Gly-Gly-Gly-Gly-Pro-(D-Pyr)-(D-Cys)-Bip-Arg-Gly-Glu [Polypeptide V]
output: 75.74

input: Now the substance Pro-(D-Pyr)-(D-Cys)-Bip-Arg-Gly-Glu-Gly-Gly-Gly-Gly-Ile-Val-Arg-Arg-Ala-Asp-Arg-Ala-Ala-Val-Pro-Gly-Gly-Gly-Gly-Arg-Gly-Asp [Polypeptide I]
output: 65.87
